Could you please report measured EC95 for the items listed next?
system: Human immunodeficiency virus 1; assay: Antiviral activity against HIV1 isolate R8 harboring reverse transcriptase K103N mutant infected in human MT4 cells assessed as inhibition of viral replication after 72 hrs in presence of 50% human serum; type: functional; conditions: Human immunodeficiency virus 1, isolate R8, MT4, 72 h
One number for each entry, in µM.

molecule	test-target	EC95 (µM)
Cc1cc(C#N)cc(C)c1Oc1nc(Nc2ccc(C#N)cc2)nc(N)c1Br [ETRAVIRINE]	Human immunodeficiency virus 1	0.043
O=C1Nc2ccc(Cl)cc2[C@@](C#CC2CC2)(C(F)(F)F)O1 [EFAVIRENZ]	Human immunodeficiency virus 1	1.73

Moving on to another molecule below.
// query Recorded EC95 of `N#Cc1cc(Cl)cc(Oc2cc(OCc3n[nH]c4nc(N)ccc34)ccc2Cl)c1` , please.
// result 0.058
